assay: in vitro; type: cell-based, human; settings: human
QUANTITY_NAME: CC50 at 3 h

MOLECULE | READING
C[C@H]1COc2c(N3CCN(C)CC3)c(F)cc3c(=O)c(C(=O)O)cn1c23 [Levofloxacin, levofloxacin, reference compound] | > 200 µg/mL

Moving on to another molecule below.
QUERY: Using known records, supply CC50 at 3 h for NCC[C@H](O)C(=O)N[C@@H]1C[C@H](N)[C@@H](O[C@H]2O[C@H](CN)[C@@H](O)[C@H](O)[C@H]2O)[C@H](O)[C@H]1O[C@H]1O[C@H](CO)[C@@H](O)[C@H](N)[C@H]1O [Amikacin, amikacin, reference compound]
RESULT: > 200 µg/mL
